The reported numbers originate from patent EP1708961B1.

Biological target: T1, recombinant human IP-10 (human, UniProt P02778 22-98)
T1 construct: Bought from R&D Systems; also called CXCL10; rhIP-10
T1 sequence: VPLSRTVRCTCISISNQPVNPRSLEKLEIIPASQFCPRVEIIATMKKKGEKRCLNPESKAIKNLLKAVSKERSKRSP
Experiment: Biacore (SPR)
Measured quantity: Kd (nM)
Express it in nM; write the number only.

The examples below pair each entry with its known result.
Binder	Display unit	Meas value
murine monoclonal antibody AIP13 (antibody, V domains shown, Mouse hybridoma antibody; Mouse IgG1/kappa was used as its isotype control; also called MuAIP13) VH: QIQLVQSGPELKKPGETVKISCKASGYTFTDYSMHWVKQAPGKGLKWMGWINTEIGEPTYADDFKGRFAFSLETSASTAYLQINNLKNEDTATYFCARNYDYDAYFDVWGAGTTVTVSS VL: DIQMTQSPSSLSASLGGKVTITCKADQDINKYIAWYQHKPGRGPRLLLHHTSTLQPGIPSRFSGSGSGRDYSFSISNLEPADIATYYCLQYDSLLFTFGSGTKLEIK	nM	1.24
humanized monoclonal antibody HuAIP12 (antibody, human IgG1, V domains shown, Human IgG1/kappa; also called unmodified HuAIP12; Wild Type) VH: EVQLVQSGAEVKKPGATVKISCKVSGYTFTDYSMHWVRQAPGKGLKWMGWINTETGEPTYADDFKGRFTFTLDTSTSTAYMELSSLRSEDTAVYYCARNYDYDGYFDVWGQGTTVTVSS VL: DIQMTQSPSSLSASVGDRVTITCKASQDINKYIAWYQQKPGKAPKLLIHYTSTLQPGIPSRFSGSGSGRDYTFTISSLQPEDIATYYCLQYDNLLFTFGQGTKLEIK	nM	0.472
murine monoclonal antibody AIP12 (antibody, V domains shown, Mouse hybridoma antibody; also called MuAIP12) VH: QIQLVQSGPELKKPGETVKISCKASGYTFTDYSMHWVKQAPGKGLKWMGWINTETGEPTYADDFKGRFAFSLETSASTAYLQINNLKNEDTATYFCARNYDYDGYFDVWGAGTTVTVSS VL: DIQMTQSPSSLSASLGGKVTITCKASQDINKYIAWYQHKPGKGPRLLIHYTSTLQPGIPSRFSGSGSGRDYSFSISNLEPEDIATYYCLQYDNLLFTFGSGTKLEIK	nM	0.275

Consider now this further binder.
Field Kd (entry humanized monoclonal antibody HuAIP13 (antibody, human IgG1, V domains shown, Human IgG1/kappa) VH: EVQLVQSGAEVKKPGATVKISCKVSGYTFTDYSMHWVRQAPGKGLKWMGWINTEIGEPTYADDFKGRFTFTLDTSTSTAYMELSSLRSEDTAVYYCARNYDYDAYFDVWGQGTTVTVSS VL: DIQMTQSPSSLSASVGDRVTITCKADQDINKYIAWYQQKPGKAPKLLLHHTSTLQPGIPSRFSGSGSGRDYTFTISSLQPEDIATYYCLQYDSLLFTFGQGTKLEIK ) reads 1.24
